System: human adipocyte cells
METHOD NOTES: Membrane integrity: LDH release from human adipocytes (LDH assay)
Format: cell-based
SETTINGS: Example 1, 48 hrs, relative to Triton-x 100 maximal LDH release
Structures can show the parent of a compound that is named as a salt.
Some molecules, each annotated with its measured Rel. max. LDH release [%] 48 hrs.

| MOLECULE | SYSTEM NAME | Rel. max. LDH release [%] 48 hrs [%] |
| --- | --- | --- |
| CC(=O)N1CCN(c2ccc(OCC3COC(Cn4ccnc4)(c4ccc(Cl)cc4Cl)O3)cc2)CC1 (centres unmarked) | human adipocyte cells | 92.2 |
| COc1ccc([C@@H]2Sc3ccccc3N(CCN(C)C)C(=O)[C@@H]2OC(C)=O)cc1.Cl [Test substance 6, Diltiazem HCl] | human adipocyte cells | 94.5 |
| CN(C)CCCC1(c2ccc(F)cc2)OCc2cc(C#N)ccc21 (centres unmarked) | human adipocyte cells | 100.7 |
| CCN(CC)CCCC(C)Nc1ccnc2cc(Cl)ccc12 (centres unmarked) | human adipocyte cells | 101.8 |
| CC(CCc1ccccc1)NCC(O)c1ccc(O)c(C(N)=O)c1 (centres unmarked) [Test substance 7, Labetalol HCl] | human adipocyte cells | 101.1 |
| CNCCC(Oc1ccc(C(F)(F)F)cc1)c1ccccc1 (centres unmarked) [Test substance 4, Fluoxetine HCl] | human adipocyte cells | 101.0 |
| CN(C)CCC[C@@]1(c2ccc(F)cc2)OCc2cc(C#N)ccc21 [Test substance 3, Escitalopram oxalate] | human adipocyte cells | 88.0 |
| C[C@H](CCC(=O)[O-])[C@H]1CC[C@H]2[C@@H]3CC[C@@H]4C[C@H](O)CC[C@]4(C)[C@H]3C[C@H](O)[C@]12C.[Na+] [Test substance 8, Deoxycholate Na] | human adipocyte cells | 98.0 |

---

Test system: human adipocyte cells
METHOD NOTES: Cytotoxicity assay: metabolic activity (resazurin conversion) of human adipocytes
Type: cell-based
SETTINGS: read-out: IC50 (metabolic activity after 48 hrs); Example 1, 48 hrs exposure, resazurin
Some compounds, each annotated with its measured IC50.
OBSERVABLE: IC50 (µM)

| COMPOUND | OBSERVABLE | UNIT NAME | QUANTITATIVE RESULT |
| --- | --- | --- | --- |
| C[C@H](CCC(=O)[O-])[C@H]1CC[C@H]2[C@@H]3CC[C@@H]4C[C@H](O)CC[C@]4(C)[C@H]3C[C@H](O)[C@]12C.[Na+] [Test substance 8, Deoxycholate Na] | IC50 | µM | 446 |
| CC(=O)N1CCN(c2ccc(OCC3COC(Cn4ccnc4)(c4ccc(Cl)cc4Cl)O3)cc2)CC1 (stereo not drawn) [Test substance 5, Ketoconazole] | IC50 | µM | 78 |
| COc1ccc([C@@H]2Sc3ccccc3N(CCN(C)C)C(=O)[C@@H]2OC(C)=O)cc1.Cl [Test substance 6, Diltiazem HCl] | IC50 | µM | 800 |

---

Test system: human adipocyte cells
METHOD NOTES: Cytotoxicity assay: metabolic activity (resazurin conversion) of human adipocytes
Type: cell-based
SETTINGS: Homo sapiens, Adipocyte, 48 h, read-out: IC50 (metabolic activity after 48 hrs)
pIC50: −log10 of the molar value.
OBSERVABLE: pIC50

| COMPOUND | OBSERVABLE | QUANTITATIVE RESULT |
| --- | --- | --- |
| CCN(CC)CCCC(C)Nc1ccnc2cc(Cl)ccc12 (stereo not shown) | pIC50 | 3.22 |
